Data provenance: paper PMC8119466

% Phosphatase Activity (compared to DMSO) PRL-2 by entry:
# measurementTarget: recombinant PRL-2 (Homo sapiens, UniProt Q12974)
# Construct: 6xHis (N, cleaved yes); made in house; host or cells: E. coli One Shot BL21 Star
# Sequence (Q12974 1-167): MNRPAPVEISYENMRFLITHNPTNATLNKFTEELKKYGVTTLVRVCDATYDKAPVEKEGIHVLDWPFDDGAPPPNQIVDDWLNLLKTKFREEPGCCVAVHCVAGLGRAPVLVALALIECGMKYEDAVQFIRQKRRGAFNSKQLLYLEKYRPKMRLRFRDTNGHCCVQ
# methodDescription: In vitro phosphatase assay (DiFMUP hydrolysis), PRL-2;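 note: PRL-2 activity read as DiFMUP hydrolysis after 20 min at room temperature with drug, enzyme first pre-reduced at 4 °C for 20 min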
# Assay type: biochemical
# conditionsUsed: FDA-approved drug screen; activity compared to DMSO
Counter-ions that a name gives are not always drawn.
assayReadout: % Phosphatase Activity (compared to DMSO) PRL-2 (%)

>>> measured("CC[C@]1(O)C[C@@H]2CN(CCc3c([nH]c4ccccc34)[C@@](C(=O)OC)(c3cc4c(cc3OC)N(C)[C@H]3[C@@](O)(C(=O)OC)[C@H](OC(C)=O)[C@]5(CC)C=CCN6CC[C@]43[C@@H]65)C2)C1 [Vinblastine sulfate]")
95
>>> measured("CN(C/C=C/C#CC(C)(C)C)Cc1cccc2ccccc12 [Terbinafine]")
122
>>> measured("NS(=O)(=O)c1cc2c(cc1Cl)NC(C(Cl)Cl)NS2(=O)=O (stereo not shown) [Trichlormethiazide]")
93
>>> measured("C[C@H](Cc1cc2c(c(C(N)=O)c1)N(CCCO)CC2)NCCOc1ccccc1OCC(F)(F)F")
104
